Reported TGI is given for each of the following compounds.
Tested on: HOP-92 NSCLC
Assay: NCI tumour cell line growth inhibition, 48 h
property label: TGI

Cc1[nH]c(=O)nc(N/N=C/c2ccc(Cl)c(Cl)c2)c1C(=O)Nc1ccc(Cl)c(Cl)c1: 39.3 µM
O=[N+]([O-])c1ccc2nc3ccc([N+](=O)[O-])cn3c2c1: > 100 µM
C/C(=N\N=C(N)N)c1c(C(=O)OCCCCCCOC(=O)c2nc3sccn3c2/C(C)=N/N=C(N)N)nc2sccn12: > 100 µM
CC1CN=C(c2cccc(OCc3ccc(COc4cccc(C5=NCC(C)N5)c4)cc3)c2)N1 (stereo unspecified): > 100 µM
Cc1cccc(NC(=O)CC(=O)N2N=C(N3c4ccccc4Sc4ccccc43)CC2c2ccccc2)c1 (stereo unspecified): > 100 µM
CCOC(=O)c1c2c(n(C)c1-c1ccccc1)C(=O)C(C)=CC2=O: 5.46 µM
CC1(CC(=O)O)OC2CCCCCC2O1 (stereo unspecified) (tested in a mixture with another compound): > 100 µM
CC1=NN(C(=O)CC(=O)Nc2cccc(Cl)c2)C(=O)C1N=Nc1ccc(S(N)(=O)=O)cc1 (stereo unspecified): > 100 µM
O=C1CSC2(CC(/C=C/C=C/c3ccccc3)=NN2c2cccc(S(=O)(=O)O)c2)N1c1nc2ccccc2s1 (stereo unspecified): > 100 µM
O=C1OC(c2ccc(O)cc2)(c2ccc(O)cc2)c2cccc3cccc1c23: 26.8 µM
COc1ccccc1C1C(C#N)=C(N)OC2=C1C(=O)CCC2 (stereo unspecified): > 100 µM
COc1ccc(N2C(=O)C3c4[nH]c5ccc(C)cc5c4C4CCC(C(C)C)CC4C3C2=O)cc1 (stereo unspecified): > 100 µM
CC(=O)[CH-]C(=O)c1ccccc1.CC(=O)[CH-]C(=O)c1ccccc1.[O]=[U+2]=[O]: > 100 µM
CCOc1ccc(NC(=O)c2c(N/N=C/c3ccc(OC)cc3)nc(=O)[nH]c2C)cc1: > 100 µM
CCOC(=O)c1cc(-c2ccc(OC)c(OC)c2)c[nH]1: > 10 µM
COc1ccccc1C(=O)c1c(N2CCCCC2)c(=O)c1=O: > 100 µM
c1ccc(SCCCC(Sc2ccccc2)Sc2ccccc2)cc1: > 100 µM
Oc1ccc(-c2c3c(nc4c2CCc2ccc(Br)cc2-4)-c2cc(Br)ccc2CC3)cc1: 31.1 µM
O=C1c2cccnc2C(=O)c2c1c(C(=O)OCCCN1CCOCC1)c1ccccn21: 0.929 µM
Cc1ccc(-c2cc(-c3ccc(Cl)cc3)nc(/N=C3\C(=O)N(CN4CCCCC4)c4ccc(Cl)cc43)n2)cc1: 51.2 µM
O=C1OCC(C(=O)c2cccc(O)c2)C1=O (stereo unspecified): > 100 µM
Clc1ccc2c(Cl)ncnc2c1: > 100 µM
CC(C)c1ccc(/C=C(\NC(=O)c2ccccc2)c2nc3ccccc3[nH]2)cc1: > 100 µM
O=C(Cn1c2ccc(Br)cc2c2nc3ccccc3nc21)NC1CCCCC1: > 100 µM
O=C1NC(=O)/C(=C\c2ccncc2)N1: > 100 µM
C/C(=N\NS(=O)(=O)c1ccc(C)cc1)c1ccc[n+]([O-])n1: > 100 µM
CC1=NNC(N)=N/C1=C/C(Sc1ccc(Cl)cc1)c1cccs1 (stereo unspecified): > 100 µM
CC(CC(=O)O)(CC(=O)O)C(=O)O: > 100 µM
COc1cc(C(c2cc3c(cc2O)OCO3)N2CCCC2)cc(OC)c1OC (stereo unspecified): 20 µM
CCOC(=O)CCC1(C(=O)OC)CCCC1=O (stereo unspecified): > 100 µM
Cc1ncc([N+](=O)[O-])n1CCN=[N+]=[N-]: > 100 µM
N#Cc1c(=O)c2cccnc2n2c1[nH]c1ccccc12: 68.4 µM
O=C1/C(=C/c2cccc(Oc3ccccc3)c2)N=C(c2ccccc2)N1c1nc2ccc(Sc3ccccc3)cc2[nH]1: > 100 µM
COc1cc(S(=O)(=O)Nc2nc(-c3ccc(N4C(=O)/C(=C/c5ccccc5)N=C4c4ccccc4)cc3)cs2)ccc1Cl: > 100 µM
O=C(Nc1cccc2nsnc12)c1cc2c(cc1Cl)Sc1nccn1S2(=O)=O: 25.2 µM
O=C(C[C@@H]1NCCC[C@H]1O)Cn1cnc2cc(Br)c(Cl)cc2c1=O: 0.11 µM
CCCCCCCCCCCCOC1C(COCCN2CCCC2)OC2OC(C)(C)OC21 (stereo unspecified): 2.72 µM
C=CCc1c(O)c2ccccc2[nH]c1=O: > 100 µM
CN1C(=O)c2cc(Cl)nc3c(NC(=O)c4cccc(Cl)c4)c(Cl)c(NC(=O)c4cccc(Cl)c4)c1c23: 3.41 µM
COc1ccc2c(c1O)[C@@]13C=C(O)C(=O)C=C1[C@@H](C2)N(C)CC3: > 100 µM
NC(N)=N/N=C(\c1ccc(Cl)cc1)C1CC1: 62.6 µM

Values compiled from PubChem BioAssay (NCI).
